Where do the numbers come from? From patent US4921850A.

- Tested on: Kleb. pneumoniae EK-6
- measurementProtocol: Anti-bacterial activity (MIC), agar dilution
- Type: cell-based
- runParameters: Klebsiella pneumoniae, EK6, 18 h, Kleb. pneumoniae EK-6; agar dilution, about 10^6 CFU/ml, 18 hours, 37° C.; read-out: MIC
# Lookup of reported MIC keyed by entry
API: value field is a number in µg/mL; no unit string.

// known answers, use as guide
[
  {
    "moleculeSmiles": "C[N+]1(C/C=C/C2=C(C(=O)[O-])N3C(=O)[C@@H](NC(=O)/C(=N\\OCF)c4nsc(N)n4)[C@H]3SC2)CCN(C=N)CC1.Cl",
    "readingUnit": "µg/mL",
    "MIC": 0.05
  },
  {
    "moleculeSmiles": "N#CCO/N=C(\\C(=O)N[C@@H]1C(=O)N2C(C(=O)[O-])=C(/C=C/C[N+](CCO)(CCO)CCO)CS[C@H]12)c1nsc(N)n1",
    "readingUnit": "µg/mL",
    "MIC": 0.05
  }
]

Now consider the entry below.
Any idea what MIC was measured for "C[N+](C)(C/C=C/C1=C(C(=O)[O-])N2C(=O)[C@@H](NC(=O)/C(=N\OCC#N)c3nsc(N)n3)[C@H]2SC1)CC(N)=O" ? 0.05

----------
- Test system: Morganella morganii EP-14
- measurementProtocol: Anti-bacterial activity (MIC), agar dilution
- Type: cell-based
- runParameters: Morganella morganii, EP14, 18 h, about 10^6 CFU/ml, 37° C., read-out: MIC
measurementType: MIC (µg/mL)
API: value field is a number in µg/mL; no unit string.

// known answers, use as guide
[
  {
    "compound": "C[N+](C)(C)C/C=C/C1=C(C(=O)[O-])N2C(=O)[C@@H](NC(=O)/C(=N\\OCF)c3nsc(N)n3)[C@H]2SC1 [Example 128]",
    "MIC [µg/mL]": 0.05
  },
  {
    "compound": "N#CCO/N=C(\\C(=O)N[C@@H]1C(=O)N2C(C(=O)[O-])=C(/C=C/C[N+]34CCCN3CCC4)CS[C@H]12)c1nsc(N)n1 [Example 161]",
    "MIC [µg/mL]": 0.1
  },
  {
    "compound": "C[N+](C)(C/C=C/C1=C(C(=O)[O-])N2C(=O)[C@@H](NC(=O)/C(=N\\OCC#N)c3nsc(N)n3)[C@H]2SC1)Cc1nnco1 [Example 159]",
    "MIC [µg/mL]": 0.1
  },
  {
    "compound": "C[N+](C)(C/C=C/C1=C(C(=O)[O-])N2C(=O)[C@@H](NC(=O)/C(=N\\OCC#N)c3nsc(N)n3)[C@H]2SC1)[C@@H](CO)C(N)=O [Example 145]",
    "MIC [µg/mL]": 0.1
  },
  {
    "compound": "C[N+](C)(C/C=C/C1=C(C(=O)[O-])N2C(=O)[C@@H](NC(=O)/C(=N\\OCF)c3nsc(N)n3)[C@H]2SC1)NC(N)=O [Example 53]",
    "MIC [µg/mL]": 0.05
  },
  {
    "compound": "CC(C)(O/N=C(\\C(=O)N[C@@H]1C(=O)N2C(C(=O)[O-])=C(C[n+]3ccccc3)CS[C@H]12)c1csc(N)n1)C(=O)O [CAZ, Cefatazidime, reference compound]",
    "MIC [µg/mL]": 0.1
  },
  {
    "compound": "C[N+]1(C/C=C/C2=C(C(=O)[O-])N3C(=O)[C@@H](NC(=O)/C(=N\\OCF)c4nsc(N)n4)[C@H]3SC2)CCN(C=N)CC1.Cl [Example 123]",
    "MIC [µg/mL]": 0.05
  },
  {
    "compound": "CC(=N)N1CC[N+](C)(C/C=C/C2=C(C(=O)[O-])N3C(=O)[C@@H](NC(=O)/C(=N\\OCF)c4nsc(N)n4)[C@H]3SC2)CC1 [Example 26]",
    "MIC [µg/mL]": 0.1
  },
  {
    "compound": "CN(C)C(=O)C[N+](C)(C)C/C=C/C1=C(C(=O)[O-])N2C(=O)[C@@H](NC(=O)/C(=N\\OCF)c3nsc(N)n3)[C@H]2SC1 [Example 56]",
    "MIC [µg/mL]": 0.05
  }
]

Now consider the entry below.
Any idea what MIC was measured for N#CCO/N=C(\C(=O)N[C@@H]1C(=O)N2C(C(=O)[O-])=C(/C=C/C[n+]3ccc(C(N)=O)cc3)CS[C@H]12)c1nsc(N)n1 [Example 158] ? 0.1

----------
- Tested on: Kleb. pneumoniae EK-6
- measurementProtocol: Anti-bacterial activity (MIC), agar dilution
- Assay type: cell-based
- runParameters: Klebsiella pneumoniae, EK6, 18 h, Kleb. pneumoniae EK-6; agar dilution, about 10^6 CFU/ml, 18 hours, 37° C.; read-out: MIC
measurementType: MIC

[
  {
    "compound": "Cc1c(CCO)sc[n+]1C/C=C/C1=C(C(=O)[O-])N2C(=O)[C@@H](NC(=O)/C(=N\\OCF)c3nsc(N)n3)[C@H]2SC1 [Example 81]",
    "obsValue": "≤ 0.025 µg/mL"
  },
  {
    "compound": "C[N+]1(C/C=C/C2=C(C(=O)[O-])N3C(=O)[C@@H](NC(=O)/C(=N\\OCF)c4nsc(N)n4)[C@H]3SC2)CCN(S(N)(=O)=O)CC1 [Example 119]",
    "obsValue": "≤ 0.025 µg/mL"
  },
  {
    "compound": "C[N+](C)(C/C=C/C1=C(C(=O)[O-])N2C(=O)[C@@H](NC(=O)/C(=N\\OCF)c3nsc(N)n3)[C@H]2SC1)CC(=O)NCCO [Example 75]",
    "obsValue": "0.05 µg/mL"
  },
  {
    "compound": "N#CCO/N=C(\\C(=O)N[C@@H]1C(=O)N2C(C(=O)[O-])=C(/C=C/C[N+]34CCN(CC3)CC4)CS[C@H]12)c1nsc(N)n1 [Example 157]",
    "obsValue": "0.1 µg/mL"
  },
  {
    "compound": "CC(O)C[N+]1(C/C=C/C2=C(C(=O)[O-])N3C(=O)[C@@H](NC(=O)/C(=N\\OCF)c4nsc(N)n4)[C@H]3SC2)CCOCC1 (stereo partly drawn) [Example 39]",
    "obsValue": "≤ 0.025 µg/mL"
  }
]

Now consider the entry below.
Any idea what MIC was measured for NC(=O)C[N+]1(C/C=C/C2=C(C(=O)[O-])N3C(=O)[C@@H](NC(=O)/C(=N\OCF)c4nsc(N)n4)[C@H]3SC2)CCC(C(N)=O)CC1 (stereo partly drawn) [Example 40] ? ≤ 0.025 µg/mL

----------
- Tested on: Staph. aureus 209-P
- measurementProtocol: Anti-bacterial activity (MIC), agar dilution
- Type: cell-based
- runParameters: Staphylococcus aureus, 209P, 18 h, Staph. aureus 209-P; agar dilution, about 10^6 CFU/ml, 18 hours, 37° C.; read-out: MIC
measurementType: MIC (µg/mL)
API: value field is a number in µg/mL; no unit string.

// known answers, use as guide
[
  {
    "compound": "CN1CCC[N+]1(C)C/C=C/C1=C(C(=O)[O-])N2C(=O)[C@@H](NC(=O)/C(=N\\OCF)c3nsc(N)n3)[C@H]2SC1 (single isomer, unassigned)",
    "MIC / µg/mL": 0.2
  },
  {
    "compound": "C[C@@H](O)[C@@H](C(N)=O)[N+](C)(C)C/C=C/C1=C(C(=O)[O-])N2C(=O)[C@@H](NC(=O)/C(=N\\OCC#N)c3nsc(N)n3)[C@H]2SC1",
    "MIC / µg/mL": 0.4
  },
  {
    "compound": "Nc1nc(/C(=N/OCF)C(=O)N[C@@H]2C(=O)N3C(C(=O)[O-])=C(/C=C/C[N+]4(CCO)C[C@H](O)C[C@H]4CO)CS[C@H]23)ns1 (single isomer, unassigned)",
    "MIC / µg/mL": 0.2
  },
  {
    "compound": "CN(C)CC(O)C[N+](C)(C)C/C=C/C1=C(C(=O)[O-])N2C(=O)[C@@H](NC(=O)/C(=N\\OCF)c3nsc(N)n3)[C@H]2SC1 (some centres unmarked)",
    "MIC / µg/mL": 0.4
  }
]

Now consider the entry below.
Any idea what MIC was measured for CN1CCC[N+]1(C)C/C=C/C1=C(C(=O)[O-])N2C(=O)[C@@H](NC(=O)/C(=N\OCC#N)c3nsc(N)n3)[C@H]2SC1 (single isomer, unassigned) ? 0.1

----------
# Lookup of reported MIC keyed by entry
- Test system: Staph. aureus 209-P
- measurementProtocol: Anti-bacterial activity (MIC), agar dilution
- Assay type: cell-based
- runParameters: Staphylococcus aureus, 209P, 18 h, Staph. aureus 209-P; agar dilution, about 10^6 CFU/ml, 18 hours, 37° C.; read-out: MIC
API: value field is a number in µg/mL; no unit string.

[
  {
    "molecule": "C[N+](C)(C/C=C/C1=C(C(=O)[O-])N2C(=O)[C@@H](NC(=O)/C(=N\\OCF)c3nsc(N)n3)[C@H]2SC1)CCC(N)=O",
    "measurementType": "MIC",
    "obsValue": 0.2
  },
  {
    "molecule": "NC(=O)C[N+]1(C/C=C/C2=C(C(=O)[O-])N3C(=O)[C@@H](NC(=O)/C(=N\\OCF)c4nsc(N)n4)[C@H]3SC2)CCCC1",
    "measurementType": "MIC",
    "obsValue": 0.2
  },
  {
    "molecule": "CN(C)C(=O)CC[N+](C)(C)C/C=C/C1=C(C(=O)[O-])N2C(=O)[C@@H](NC(=O)/C(=N\\OCF)c3nsc(N)n3)[C@H]2SC1",
    "measurementType": "MIC",
    "obsValue": 0.4
  },
  {
    "molecule": "C[N+]1(C/C=C/C2=C(C(=O)[O-])N3C(=O)[C@@H](NC(=O)/C(=N\\OCF)c4nsc(N)n4)[C@H]3SC2)C[C@H](O)C[C@H]1CO (some centres unmarked)",
    "measurementType": "MIC",
    "obsValue": 0.2
  },
  {
    "molecule": "C[N+](C)(C/C=C/C1=C(C(=O)[O-])N2C(=O)[C@@H](NC(=O)/C(=N\\OCF)c3nsc(N)n3)[C@H]2SC1)[C@H](CO)C(=O)NCO",
    "measurementType": "MIC",
    "obsValue": 0.4
  },
  {
    "molecule": "CC(=O)C[N+](C)(C)C/C=C/C1=C(C(=O)[O-])N2C(=O)[C@@H](NC(=O)/C(=N\\OCC#N)c3nsc(N)n3)[C@H]2SC1",
    "measurementType": "MIC",
    "obsValue": 0.4
  }
]

Lab request: please report MIC under test system Staph. aureus 209-P for "CNC(=O)C[N+](C)(C)C/C=C/C1=C(C(=O)[O-])N2C(=O)[C@@H](NC(=O)/C(=N\OCF)c3nsc(N)n3)[C@H]2SC1" 0.2

Lab request: please report MIC under test system Staph. aureus 209-P for "N#CCO/N=C(\C(=O)N[C@@H]1C(=O)N2C(C(=O)[O-])=C(/C=C/C[N+]34CCCN3CCC4)CS[C@H]12)c1nsc(N)n1" 0.2
